The origin of these recorded values is paper PMC11369174.

target: T1, USP7 MATH/TRAF domain (human); test: fluorescence polarisation; saturation binding: dilution series of the protein domain added to 10 nM FITC-labelled peptide; 50 mM sodium phosphate pH 7.4, 0.05% Tween (protein dialysed in 50 mM sodium phosphate with 1 mM DTT; CASK kinase domain with 100 mM NaCl in addition); quadratic fit; technical triplets; settings: both partners purified
T1 construct: USP7, human, MATH/TRAF domain; source: E. coli BL21 (DE3) Gold, purified (glutathione or Ni2+ beads)
Where no end group is shown, it is not given here.
experimental-readout: Kd (nM)
Numbers only, in nM.

IN: Suppose we examine the binder DYSQPSTSSSIIY (also: FITC label, position not given here) [FITC-MDM2] ; what Kd value has been reported?
OUT: 500
